B1: r11_951_TrROS_Hall (parent)
chain: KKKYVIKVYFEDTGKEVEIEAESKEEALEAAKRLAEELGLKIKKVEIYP

# Variants of: B1
# Method Summary: folding stability dG (cDNA display proteolysis); higher = more stable
# Condition Info: PBS, room temperature
Rule: folding stability dG under 4 kcal/mol gives not fulfilled, otherwise fulfilled.

Mutation	Label Class
E46W	fulfilled
L40F	fulfilled
K15S	fulfilled
L40W	fulfilled
A30H	fulfilled
F10R	not fulfilled
G39Q	fulfilled
S23F	fulfilled
Y9R	fulfilled
A31P	not fulfilled
K15A	fulfilled
E16V	fulfilled
I47F	fulfilled
E46I	fulfilled
K44H	fulfilled
L40R	fulfilled
A31F	fulfilled
E29P	not fulfilled
K44M	fulfilled
Y9E	fulfilled
K15I	fulfilled
I42A	not fulfilled
K15C	not fulfilled
K43A	fulfilled
V45R	not fulfilled
Y48L	fulfilled
L28I	fulfilled
A30P	not fulfilled
L34P	not fulfilled
E20G	fulfilled
